The origin of these recorded values is PubChem BioAssay.

Each entry below lists one item and its recorded z-score value.
Assay: PSAC antagonists in infected red cells, primary screen, cell-based, P. falciparum Indochina, OD700, 1 h (AID 1154)
Details: P. falciparum Indochina infected RBC osmotic lysis, higher = more signal, called active from +8 up or from −8 down
Active and inactive are the calls of the source.
Value Kind: z-score

[[record]]
molecule = "CO[C@@H]1C=CCC(=O)N[C@@H](C)C(=O)OC[C@@H](NS(=O)(=O)c2ccc(C)cc2)[C@H](C)C=CCC(=O)OC[C@H]1C"
observed = "0.0412 (inactive)"

[[record]]
molecule = "COC(=O)[C@@H]1CC[C@H](C)[C@@H](c2ccc(Br)cc2)N1C[C@@H](O)CN=[N+]=[N-]"
observed = "1.87 (inactive)"

[[record]]
molecule = "COC(=O)[C@@H]1CC[C@H](C)[C@@H](c2ccc(Br)cc2)N1"
observed = "-0.452 (inactive)"

[[record]]
molecule = "CCc1cc2c(nc1CC)CCN(CCC(C)=NO[C@@H]1O[C@H](COC(C)=O)[C@@H](OC(C)=O)[C@H](OC(C)=O)[C@H]1OC(C)=O)C2"
observed = "-0.451 (inactive)"

[[record]]
molecule = "CON=C(C)CCN1CCc2nc(-c3ccccc3)c(-c3ccccc3)cc2C1"
observed = "3.74 (inactive)"

[[record]]
molecule = "CCOC(=O)[C@H](CC(C)C)NC(=O)CCC1CC(OC(=O)NCCc2ccc(F)cc2)CC2(CCCC(COC(=O)NCc3cccc4ccccc34)O2)O1 (stereo not given in full)"
observed = "15.2 (active)"

[[record]]
molecule = "COC(=O)[C@@H]1CC[C@H](C)[C@@H](c2ccc(C)cc2)N1C(=O)c1ccc(C=NO[C@@H](C)c2cc(-c3c(C)cc(C)cc3C)no2)cc1"
observed = "1.12 (inactive)"

[[record]]
molecule = "CC(CCN1CCCc2nc(C)c(C)cc21)=NO[C@H](C)c1cn([C@@H]2COC[C@H]2O)nn1"
observed = "1.65 (inactive)"

[[record]]
molecule = "CC(C)=CCCC(C)=CCON=C1C[C@@H](O)[C@@H](O)[C@@H]2[C@@H]3C(=O)N(c4cccc(Oc5ccccc5)c4)C(=O)[C@@H]3CC[C@H]12"
observed = "2.26 (inactive)"

[[record]]
molecule = "C[C@H]1C=CCC(=O)OC[C@H](C)C(=O)N2CCC[C@H]2C(=O)OC1"
observed = "0.158 (inactive)"

[[record]]
molecule = "CC(C)[C@@H](OCc1ccccc1)[C@H](C)C=NO[C@H](C)c1cn([C@@H]2COC[C@H]2O)nn1"
observed = "0.551 (inactive)"

[[record]]
molecule = "CC(C)=CCCC(C)=CCON=C1C[C@@H](O)[C@@H](O)[C@@H]2[C@@H]3C(=O)N(Cc4ccc5c(c4)OCO5)C(=O)[C@@H]3CC[C@@H]12"
observed = "31.3 (active)"

[[record]]
molecule = "CC(=O)OC[C@H]1O[C@H](CC=NO[C@H](C)c2cn([C@@H]3COC[C@H]3O)nn2)C=C[C@@H]1OC(C)=O"
observed = "-0.279 (inactive)"

[[record]]
molecule = "CCOC(=O)[C@H](Cc1ccccc1)NC(=O)CCC1CC(OC(=O)NCCc2ccc(F)cc2)CC2(CCCC(COC(=O)NCCC(C)C)O2)O1 (stereo not given in full)"
observed = "-1.5 (inactive)"

[[record]]
molecule = "C=CC[C@@H]1C=C[C@H](ON=C2C[C@@H](O)[C@@H](O)[C@@H]3[C@@H]4C(=O)N(CC)C(=O)[C@@H]4CC[C@@H]23)[C@@H](CO)O1"
observed = "-0.146 (inactive)"

